Assay: protein stability index of a GFP-peptide fusion (yeast GPS) (PSI 1-4); higher = more stable; sorted into four equal gates, so the index is relative within each strain
Conditions: pdr5∆
Examples of sequences with documented protein stability index follow.
ASSAY_READOUT: protein stability index

{"BIOSEQUENCE": "NKSRSSGHFSTDSRTGQ [CDC53]", "VALUE_MEASURED": 3.05}
{"BIOSEQUENCE": "EILILINDPTNKEYTLV [SIN4]", "VALUE_MEASURED": 2.05}
{"BIOSEQUENCE": "SLSNPNSTATMQHNPLA [PGD1]", "VALUE_MEASURED": 3.1}
{"BIOSEQUENCE": "AWGALITTFVKRSTVPL [YML103C/NUP188]", "VALUE_MEASURED": 2.88}
{"BIOSEQUENCE": "TVVQVYDNGQVFPSSIL [RPP0]", "VALUE_MEASURED": 1.29}
{"BIOSEQUENCE": "SIKSKVVDHHVENELLQ [RRP42]", "VALUE_MEASURED": 3.24}
{"BIOSEQUENCE": "EDAFNFWFDKLVTKILP [YCG1]", "VALUE_MEASURED": 2.5}
{"BIOSEQUENCE": "NIWGTVRTNRFDIIEES [ECM29]", "VALUE_MEASURED": 3.35}
{"BIOSEQUENCE": "HKLVFVVRIKGINKIPP [RPL7A]", "VALUE_MEASURED": 1.57}
{"BIOSEQUENCE": "SAGLDSAQQNLASSFVN [RPN1]", "VALUE_MEASURED": 2.96}
{"BIOSEQUENCE": "DENKASATSKPAFSFGA [YJL041W/NSP1]", "VALUE_MEASURED": 2.98}
{"BIOSEQUENCE": "TVNHSEKFPNDVKLLNP [RPP1]", "VALUE_MEASURED": 2.87}
{"BIOSEQUENCE": "PIPVQGEIEIKPNEEEE [RPN13]", "VALUE_MEASURED": 2.59}
{"BIOSEQUENCE": "YPFLLSFLGEAKSMAFL [YML103C/NUP188]", "VALUE_MEASURED": 2.35}
{"BIOSEQUENCE": "SFLFDVLKTLEYKLATY [NUT1]", "VALUE_MEASURED": 2.18}
{"BIOSEQUENCE": "YSLHQIRKDPNNLSNQL [CSE2]", "VALUE_MEASURED": 2.66}
{"BIOSEQUENCE": "EYQSLMSLKDKLLIQID [SMC1]", "VALUE_MEASURED": 2.62}
{"BIOSEQUENCE": "RKRAHSLVSTQSSSSTR [REC8]", "VALUE_MEASURED": 2.94}
{"BIOSEQUENCE": "VLKFAAHTGATPIAGRF [RPS0A]", "VALUE_MEASURED": 2.85}
{"BIOSEQUENCE": "GPEITPEEATTIFSVMV [PRP8]", "VALUE_MEASURED": 2.37}
{"BIOSEQUENCE": "QLQKILESLKPIDDTMT [MTW1]", "VALUE_MEASURED": 2.86}
{"BIOSEQUENCE": "GAAGAWMMNGALQILNS [FAS2]", "VALUE_MEASURED": 1.65}
{"BIOSEQUENCE": "GTAIGAIGAQSIGEPGT [RPO31]", "VALUE_MEASURED": 3.13}
{"BIOSEQUENCE": "TVDVSSPTENGVFDPAS [RPL22A]", "VALUE_MEASURED": 3.17}
{"BIOSEQUENCE": "QYEHLIKGIREYEEWQK [YDL116W/NUP84]", "VALUE_MEASURED": 2.99}
{"BIOSEQUENCE": "INLNVDDDILIIRPILG [SRB4]", "VALUE_MEASURED": 3.07}
{"BIOSEQUENCE": "CSHCGCVYVPNFNASLQ [SNM1]", "VALUE_MEASURED": 2.42}
{"BIOSEQUENCE": "FKAMEDVIAWKNVLANS [ITC1]", "VALUE_MEASURED": 2.95}
{"BIOSEQUENCE": "DKKEMTIYNNIREGQNQ [SIR3]", "VALUE_MEASURED": 3.37}
{"BIOSEQUENCE": "QIILDRFAPDNQVTDSS [SIR3]", "VALUE_MEASURED": 2.93}
{"BIOSEQUENCE": "LKVLSGDEGYNEDMVRR [SNF12]", "VALUE_MEASURED": 3.22}
{"BIOSEQUENCE": "YGNPTSKESWRYDWYQP [RTT102]", "VALUE_MEASURED": 2.27}
{"BIOSEQUENCE": "TLKDYQIKGLQWMVSLF [SNF2]", "VALUE_MEASURED": 2.54}
{"BIOSEQUENCE": "THSYNFMRQNLEWNMAN [RPC82]", "VALUE_MEASURED": 1.75}
{"BIOSEQUENCE": "SNFTSIIGPNGSGKSNM [SMC1]", "VALUE_MEASURED": 3.04}
{"BIOSEQUENCE": "AGKADTSIRLEGDELEN [SRB4]", "VALUE_MEASURED": 2.97}
{"BIOSEQUENCE": "SGTPITQTESKKEENET [SNF2]", "VALUE_MEASURED": 2.59}
{"BIOSEQUENCE": "TGQNFLTSNISSLVRSC [REC8]", "VALUE_MEASURED": 2.78}
{"BIOSEQUENCE": "APSLTVPPIASPQQFLR [PRE2]", "VALUE_MEASURED": 1.95}
{"BIOSEQUENCE": "DDISRQVARTNLDGTKA [ROX3]", "VALUE_MEASURED": 2.88}
{"BIOSEQUENCE": "DMDPLAVSAASVVSMSN [SIR2]", "VALUE_MEASURED": 2.31}
{"BIOSEQUENCE": "EIDDTEAEVTAEVNGGD [BRR2]", "VALUE_MEASURED": 2.79}
{"BIOSEQUENCE": "LFQRQKLHEFYLLISKE [IRR1]", "VALUE_MEASURED": 2.97}
{"BIOSEQUENCE": "SLDDNSTSLEKQINSIK [YJL041W/NSP1]", "VALUE_MEASURED": 3.08}
